- ASSAY COMMENT: In vitro C-C chemokine receptor type 3 activity of compound by using eotaxin induced human eosinophil chemotaxis assay
PROPERTY LABEL: IC50 (nM)

[[record]]
smiles_input = "N#Cc1cccc(NC(=O)NCCCN2CCC(Cc3ccc(F)cc3)CC2)c1"
units_symbol = "nM"
data_value = 80

[[record]]
smiles_input = "N#Cc1cccc(NC(=O)NCCCN2CCC(Cc3ccc(Cl)cc3)CC2)c1"
units_symbol = "nM"
data_value = 200

[[record]]
smiles_input = "CC[C@H](O)[C@H]1C[C@@H](Cc2ccccc2)CCN1CCCNC(=O)Nc1cccc(C(C)=O)c1"
units_symbol = "nM"
data_value = 20

